Measured values drawn from patent US20260232682A1 for this set.

tested.on: [GSPT1]-[compound of formula (I)]-[CRBN/DDB1] complex (Homo sapiens, UniProt P15170+Q96SW2)
Sequence (P15170 whole entry, one chain of several): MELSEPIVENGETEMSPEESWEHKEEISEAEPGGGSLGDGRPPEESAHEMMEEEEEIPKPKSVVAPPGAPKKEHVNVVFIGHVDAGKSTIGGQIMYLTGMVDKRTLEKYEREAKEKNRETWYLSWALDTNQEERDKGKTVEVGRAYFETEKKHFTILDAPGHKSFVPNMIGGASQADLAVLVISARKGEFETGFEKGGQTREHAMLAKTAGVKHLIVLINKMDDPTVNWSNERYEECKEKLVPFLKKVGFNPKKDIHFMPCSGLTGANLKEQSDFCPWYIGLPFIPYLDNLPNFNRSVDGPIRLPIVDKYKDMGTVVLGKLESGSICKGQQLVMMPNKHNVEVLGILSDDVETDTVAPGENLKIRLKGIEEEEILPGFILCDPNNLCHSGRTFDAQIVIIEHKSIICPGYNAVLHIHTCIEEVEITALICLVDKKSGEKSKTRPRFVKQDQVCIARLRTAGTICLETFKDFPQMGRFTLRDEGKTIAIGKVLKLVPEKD
assay.summary: AlphaLISA ternary complex formation assay (GSPT1)
Format: binding
setup.conditions: 0.5 h; 1 μM compound; normalized to reference compound CC-885; read-out: Normalized AlphaLISA ternary complex average signal at 1 μM molecule
readout.type: activation at 1 µM

Observe how each entry below is paired with its result.
Query :: Which activation at 1 µM is listed for Cc1nc2ccc(COC(=O)Nc3cc(OC(F)(F)F)ccc3F)cc2cc1C1CCC(=O)NC1=O (stereo not shown) [Compound 7] ?
Result :: 10 to 50%

Query :: Which activation at 1 µM is listed for Cc1nc2cc(COC(=O)Nc3cc(C(F)(F)F)no3)ccc2cc1C1CCC(=O)NC1=O (stereo not shown) [Compound 71] ?
Result :: > 50%

Query :: Which activation at 1 µM is listed for Cc1nc2cc(COC(=O)Nc3cccc(OC(F)(F)F)c3)ccc2cc1C1CCC(=O)NC1=O (stereo not shown) [Compound 19] ?
Result :: 10 to 50%

// moving on: another record for activation at 1 µM
Query :: Which activation at 1 µM is listed for COc1cnc(NC(=O)OCc2ccc3cc(C4CCC(=O)NC4=O)c(C)nc3c2)cn1 (stereo not shown) [Compound 59] ?
Result :: > 50%

====

tested.on: [GSPT1]-[compound of formula (I)]-[CRBN/DDB1] complex (Homo sapiens, UniProt P15170+Q96SW2)
assay.summary: HTRF ternary complex assay (GSPT1)
Type: binding
setup.conditions: read-out: HTRF ternary complex Average pEC50 by molecule (converted)
Examples of compounds with documented EC50 follow.

Query :: Which EC50 is listed for Cc1nc2cc(COC(=O)Nc3ccc(C(C)(C)C)c(Cl)c3)ccc2cc1C1CCC(=O)NC1=O (stereo not shown) ?
Result :: < 316 nM

Query :: Which EC50 is listed for `Cc1nc2ccc(CNC(=O)Nc3cc(C(C)(C)C)no3)cc2cc1N1CCC(=O)NC1=O` ?
Result :: < 316 nM

Query :: Which EC50 is listed for Cc1nc2cc(COC(=O)Nc3ccc4c(c3)OCO4)ccc2cc1C1CCC(=O)NC1=O (stereo not shown) ?
Result :: 316 to 3160 nM

Query :: Which EC50 is listed for `Cc1nc2cc(COC(=O)Nc3cc(C(C)(C)C)no3)ccc2cc1N1CCC(=O)NC1=O` ?
Result :: 316 to 3160 nM

Next:
Query :: Which EC50 is listed for `Cc1ccc(NC(=O)OCc2ccc3cc(N4CCC(=O)NC4=O)c(C)nc3c2)cc1Cl` ?
Result :: 316 to 3160 nM

Query :: Which EC50 is listed for Cc1nc2cc(COC(=O)Nc3cc(C(C)(C)C)n[nH]3)ccc2cc1C1CCC(=O)NC1=O (stereo not shown) ?
Result :: 316 to 3160 nM

====

Examples of compounds with documented activation at 1 µM follow.
tested.on: [IKZF2 ZF2]-[compound]-[CRBN/DDB1] ternary complex (Homo sapiens, UniProt Q96SW2+Q9UKS7)
Construct: IKZF2 ZF2
Sequence (Q9UKS7 140-162 limits assumed): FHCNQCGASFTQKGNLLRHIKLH
Sequence (Q96SW2 whole entry): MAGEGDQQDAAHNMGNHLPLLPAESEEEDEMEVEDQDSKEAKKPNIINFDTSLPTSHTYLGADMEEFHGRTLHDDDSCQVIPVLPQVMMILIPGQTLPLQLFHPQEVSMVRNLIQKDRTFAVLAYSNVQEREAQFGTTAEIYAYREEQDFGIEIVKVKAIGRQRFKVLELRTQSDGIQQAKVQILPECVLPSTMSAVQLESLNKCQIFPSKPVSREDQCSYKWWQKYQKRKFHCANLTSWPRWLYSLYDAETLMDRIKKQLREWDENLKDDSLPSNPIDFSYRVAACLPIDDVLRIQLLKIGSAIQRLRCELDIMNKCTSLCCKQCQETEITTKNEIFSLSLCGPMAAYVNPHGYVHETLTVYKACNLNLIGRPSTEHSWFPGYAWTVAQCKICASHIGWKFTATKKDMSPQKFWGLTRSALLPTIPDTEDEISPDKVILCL
Sequence (Q16531 whole entry partner): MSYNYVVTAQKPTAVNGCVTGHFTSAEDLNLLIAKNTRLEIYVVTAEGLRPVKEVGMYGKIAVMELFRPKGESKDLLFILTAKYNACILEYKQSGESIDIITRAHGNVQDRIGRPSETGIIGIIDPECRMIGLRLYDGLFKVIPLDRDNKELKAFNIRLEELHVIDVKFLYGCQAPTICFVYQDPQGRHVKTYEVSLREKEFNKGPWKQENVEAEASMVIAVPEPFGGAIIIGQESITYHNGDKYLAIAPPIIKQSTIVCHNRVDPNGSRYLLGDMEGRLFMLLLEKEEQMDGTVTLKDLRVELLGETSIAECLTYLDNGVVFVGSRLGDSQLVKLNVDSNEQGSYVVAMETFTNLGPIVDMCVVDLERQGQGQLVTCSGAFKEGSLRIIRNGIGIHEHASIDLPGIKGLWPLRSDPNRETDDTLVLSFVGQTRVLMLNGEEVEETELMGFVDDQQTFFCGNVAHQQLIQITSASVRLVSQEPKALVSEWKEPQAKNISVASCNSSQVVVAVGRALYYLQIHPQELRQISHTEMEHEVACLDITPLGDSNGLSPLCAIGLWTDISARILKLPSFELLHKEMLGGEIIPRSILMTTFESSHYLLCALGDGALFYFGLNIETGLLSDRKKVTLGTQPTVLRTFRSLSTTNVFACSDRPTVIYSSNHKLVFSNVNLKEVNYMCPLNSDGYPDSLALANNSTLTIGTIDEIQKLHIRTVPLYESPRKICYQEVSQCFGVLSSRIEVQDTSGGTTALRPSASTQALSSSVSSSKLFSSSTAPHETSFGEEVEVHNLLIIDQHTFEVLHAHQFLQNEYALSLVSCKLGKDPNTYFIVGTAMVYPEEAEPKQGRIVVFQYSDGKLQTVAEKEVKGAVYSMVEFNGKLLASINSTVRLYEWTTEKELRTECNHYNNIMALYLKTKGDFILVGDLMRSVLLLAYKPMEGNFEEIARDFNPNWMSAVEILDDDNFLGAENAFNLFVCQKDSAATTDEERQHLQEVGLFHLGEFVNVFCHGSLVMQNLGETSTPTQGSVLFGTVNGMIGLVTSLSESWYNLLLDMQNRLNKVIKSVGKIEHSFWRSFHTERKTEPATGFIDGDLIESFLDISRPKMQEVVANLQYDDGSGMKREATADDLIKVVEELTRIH
assay.summary: AlphaLISA assay for off-target recruitment detection, IKZF2 ZF2
Format: binding
setup.conditions: 1 μM compound; normalized to Helios modulator; read-out: Normalized ternary complex response, IKZF2 ZF2

Observe how each entry below is paired with its result.
Query :: Which activation at 1 µM is listed for Cc1ccc(Nc2c(NCc3ccc4cc(C5CCC(=O)NC5=O)c(C)nc4c3)c(=O)c2=O)cc1Cl (stereo not shown) ?
Result :: < 10%

Query :: Which activation at 1 µM is listed for Cc1nc2cc(COC(=O)Nc3ccc(C(C)(C)C)cc3)ccc2cc1C1CCC(=O)NC1=O (stereo not shown) ?
Result :: < 10%

Query :: Which activation at 1 µM is listed for Cc1nc2cc(COC(=O)Nc3ccc(-c4ccccc4)nc3)ccc2cc1C1CCC(=O)NC1=O (stereo not shown) ?
Result :: < 10%

Query :: Which activation at 1 µM is listed for `Cc1ccc(NC(=O)OCc2ccc3cc(N4CCC(=O)NC4=O)c(C)nc3c2)cc1Cl` ?
Result :: < 10%

Next:
Query :: Which activation at 1 µM is listed for Cc1ccc(NCC(=O)NCc2ccc3nc(C)c(C4CCC(=O)NC4=O)cc3c2)cc1Cl (stereo not shown) ?
Result :: < 10%

Query :: Which activation at 1 µM is listed for Cc1ccc(NC(=O)CCc2ccc3cc(C4CCC(=O)NC4=O)c(C)nc3c2)cc1Cl (stereo not shown) ?
Result :: < 10%

Query :: Which activation at 1 µM is listed for Cc1nc2cc(COC(=O)Nc3ccc4c(c3)OCO4)ccc2cc1C1CCC(=O)NC1=O (stereo not shown) ?
Result :: < 10%

Query :: Which activation at 1 µM is listed for Cc1ccc(NC(=O)OCc2ccc3cc(C4CCC(=O)NC4=O)c(C)nc3c2F)cc1Cl (stereo not shown) ?
Result :: < 10%

Query :: Which activation at 1 µM is listed for Cc1nc2cc(COC(=O)Nc3ccc4c(c3)OCCO4)ccc2cc1C1CCC(=O)NC1=O (stereo not shown) ?
Result :: < 10%

Query :: Which activation at 1 µM is listed for `Cc1ccc(NC(=O)NCc2ccc3cc(N4CCC(=O)NC4=O)c(C)nc3c2)cc1Cl` ?
Result :: < 10%

Query :: Which activation at 1 µM is listed for `Cc1nc2ccc(CNC(=O)Nc3cc(C(C)(C)C)no3)cc2cc1N1CCC(=O)NC1=O` ?
Result :: 25 to 50%

Query :: Which activation at 1 µM is listed for Cc1nc2cc(COC(=O)Nc3ccc(C(F)(F)F)c(Cl)c3)ccc2cc1C1CCC(=O)NC1=O (stereo not shown) ?
Result :: < 10%

Query :: Which activation at 1 µM is listed for COc1cc(C)c(Cl)cc1NC(=O)OCc1ccc2cc(C3CCC(=O)NC3=O)c(C)nc2c1 (stereo not shown) ?
Result :: < 10%

====

tested.on: GSPT1-HiBiT protein in GSPT1-HiBiT HEK293 cells (Homo sapiens, UniProt P15170+Q96SW2)
Construct: endogenous in cells; host or cells: HEK293 (CRISPR/Cas9 knock-in of HiBiT at the GSPT1 locus)
Sequence (P15170 whole entry, one chain of several): as the sequence (P15170 whole entry, one chain of several) above
assay.summary: GSPT1 degradation assay using HiBiT system (Nano-Glo HiBiT lytic assay)
Type: cell-based
setup.conditions: 6 hours treatment, read-out: HiBiT lytic assay Geomean absolute DC50
readout.type: DC50

Observe how each entry below is paired with its result.
Query :: Which DC50 is listed for Cc1nc2cc(COC(=O)Nc3cccc(C(C)(C)C)c3)ccc2cc1C1CCC(=O)NC1=O (centres unmarked) ?
Result :: 10 to 50 nM

Query :: Which DC50 is listed for Cc1nc2cc(COC(=O)Nc3nc(C(C)(C)C)no3)ccc2cc1C1CCC(=O)NC1=O (centres unmarked) ?
Result :: 10 to 50 nM

Query :: Which DC50 is listed for Cc1ccc(NC(=O)OCc2ccc3cc(C4CCC(=O)NC4=O)c(C)nc3c2)c(Cl)c1Cl (centres unmarked) ?
Result :: 10 to 50 nM

Query :: Which DC50 is listed for Cc1ccc(NC(=O)CCc2ccc3cc(C4CCC(=O)NC4=O)c(C)nc3c2)cc1Cl (centres unmarked) ?
Result :: 10 to 50 nM

Query :: Which DC50 is listed for COc1cnc(NC(=O)OCc2ccc3cc(C4CCC(=O)NC4=O)c(C)nc3c2)cn1 (centres unmarked) ?
Result :: 10 to 50 nM

Next:
Query :: Which DC50 is listed for `Cc1nc2cc(CNC(=O)Nc3cc(C(C)(C)C)no3)ccc2cc1N1CCC(=O)NC1=O` ?
Result :: > 100 nM

Query :: Which DC50 is listed for Cc1ccc(NC(=O)OCc2ccc3cc(C4CCC(=O)NC4=O)c(C)nc3c2)cc1Cl (centres unmarked) ?
Result :: 10 to 50 nM

Query :: Which DC50 is listed for Cc1nc2cc(COC(=O)Nc3cccc(OC(F)(F)F)c3)ccc2cc1C1CCC(=O)NC1=O (centres unmarked) ?
Result :: < 10 nM

====

tested.on: [GSPT1]-[compound of formula (I)]-[CRBN/DDB1] complex (Homo sapiens, UniProt P15170+Q96SW2)
assay.summary: AlphaLISA ternary complex formation assay (GSPT1)
Assay type: binding
setup.conditions: 0.5 h; 1 μM compound; normalized to reference compound CC-885; read-out: Normalized AlphaLISA ternary complex average signal at 1 μM molecule
readout.type: activation at 1 µM

Observe how each entry below is paired with its result.
Query :: Which activation at 1 µM is listed for COc1ccc(NC(=O)OCc2ccc3cc(C4CCC(=O)NC4=O)c(C)nc3c2)cc1Cl (centres unmarked) ?
Result :: > 50%

Query :: Which activation at 1 µM is listed for Cc1nc2cc(COC(=O)NC3CCN(c4ccccc4)CC3)ccc2cc1C1CCC(=O)NC1=O (centres unmarked) ?
Result :: 10 to 50%

Query :: Which activation at 1 µM is listed for Cc1ccc(NC(=O)OCc2ccc3nc(C)c(C4CCC(=O)NC4=O)cc3c2)cc1Cl (centres unmarked) ?
Result :: > 50%

Query :: Which activation at 1 µM is listed for Cc1ccc(NC(=O)OCc2cc(F)c3cc(C4CCC(=O)NC4=O)c(C)nc3c2)cc1Cl (centres unmarked) ?
Result :: > 50%

Next:
Query :: Which activation at 1 µM is listed for Cc1ccc(NC(=O)OCc2cc3nc(C)c(C4CCC(=O)NC4=O)cc3cc2F)cc1Cl (centres unmarked) ?
Result :: 10 to 50%

Query :: Which activation at 1 µM is listed for Cc1nc2ccc(CNC(=O)C(=O)N3CCC(C(C)(C)C)CC3)cc2cc1C1CCC(=O)NC1=O (centres unmarked) ?
Result :: 10 to 50%

Query :: Which activation at 1 µM is listed for Cc1ccc(NC(=O)OCc2ccc3cc(C4(F)CCC(=O)NC4=O)c(C)nc3c2)cc1Cl (centres unmarked) ?
Result :: 10 to 50%

Query :: Which activation at 1 µM is listed for Cc1ccc(NCC(=O)NCc2ccc3nc(C)c(C4CCC(=O)NC4=O)cc3c2)cc1Cl (centres unmarked) ?
Result :: 10 to 50%
